Target: Hck (UniProt P08631)
Sequence (P08631 whole entry, looked up): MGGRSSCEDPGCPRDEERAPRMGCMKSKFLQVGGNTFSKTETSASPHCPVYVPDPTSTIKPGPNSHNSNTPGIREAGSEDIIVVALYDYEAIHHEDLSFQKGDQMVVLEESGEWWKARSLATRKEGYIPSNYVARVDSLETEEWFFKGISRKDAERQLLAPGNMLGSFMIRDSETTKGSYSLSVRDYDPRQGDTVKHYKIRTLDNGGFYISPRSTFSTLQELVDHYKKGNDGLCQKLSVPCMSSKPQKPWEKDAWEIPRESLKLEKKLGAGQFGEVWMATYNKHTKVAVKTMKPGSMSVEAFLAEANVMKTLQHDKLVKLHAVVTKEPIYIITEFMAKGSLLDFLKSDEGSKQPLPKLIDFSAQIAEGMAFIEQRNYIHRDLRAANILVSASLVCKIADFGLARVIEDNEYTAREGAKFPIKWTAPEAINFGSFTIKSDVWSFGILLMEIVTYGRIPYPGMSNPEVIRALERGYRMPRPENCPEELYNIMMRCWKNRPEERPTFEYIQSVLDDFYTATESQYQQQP
Experiment: phosphorylation enrichment, bacterial display (enrichment ratio); higher = better substrate or ligand; peptides without Tyr show the background;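 also: 11-residue human phosphosite peptides and single-mutation variants displayed on the E. coli surface, counted by deep sequencing, each peptide's frequency after selection divided by its frequency in the unselected input library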;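 also: frequency after pTyr selection over input frequency; kinase dosed for 20-30% of maximal phosphorylation in three min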
Kindly return label 1 if reported phosphorylation enrichment is no lower than 0.6; return label 0 if it is lower.

{"BIOPOLYMER SEQUENCE": "EIVYVYVKKRS [DNAI2_Y7]", "QUALITATIVE LABEL": "label 0"}
{"BIOPOLYMER SEQUENCE": "TIMTDYNPNYC [ALK_Y1092]", "QUALITATIVE LABEL": "label 1"}
{"BIOPOLYMER SEQUENCE": "HQNGMYGLHQD [SGSH_Y89]", "QUALITATIVE LABEL": "label 0"}

Next item in the queue.
*Q* Record SVCPDYDLCSV [SQSTM1_Y148] ; criterion: phosphorylation enrichment no lower than 0.6. Met?
*A* label 1

----------
Tested on: Fer (mouse)
Assay: phosphorylation enrichment, bacterial display (enrichment ratio); higher = better substrate or ligand; peptides without Tyr show the background
Assign a class from recorded phosphorylation enrichment; defined classes: lo = under 0.4, med = from 0.4 up to 0.6, hi = 0.6 and over

A selection of reference data follows.
{"BIOPOLYMER SEQUENCE": "RGNMFYENSFA [EGFR_Y113_YF]", "TESTED ON": "Fer (mouse)", "QUALITATIVE LABEL": "hi"}
{"BIOPOLYMER SEQUENCE": "SGIYQYSIAKF [FOXL2_Y83_I84S]", "TESTED ON": "Fer (mouse)", "QUALITATIVE LABEL": "hi"}
{"BIOPOLYMER SEQUENCE": "LAVNPYGPPDL", "TESTED ON": "Fer (mouse)", "QUALITATIVE LABEL": "hi"}
{"BIOPOLYMER SEQUENCE": "LVKDGYQMAQP [CSF1R_Y873]", "TESTED ON": "Fer (mouse)", "QUALITATIVE LABEL": "med"}
{"BIOPOLYMER SEQUENCE": "SIKDKYLTALY [KCNH2_Y611_V612L]", "TESTED ON": "Fer (mouse)", "QUALITATIVE LABEL": "med"}

*Q* Lab note: which band did MSDVPYVMNRG [ACAT1_Y161_N158D] land in?
*A* med

*Q* Consider next the sequence RTTIHYNYMCN [TP53_Y234_C229R] in the same way.
*A* hi

*Q* Ok, now NTGDYYDLYGG [PTPN11_Y63]
*A* hi

*Q* Now the same for ILDEAYVMAGA [ERBB2_Y772_V777A]
*A* med

*Q* For YVGGFYGGCNE [CTSC_Y352] then?
*A* hi

*Q* // repeat for FSIDHYLGKEM [G6PD_Y202_R198S_YF] and report
*A* med

*Q* And for RTEAQYRFIYM [PTPN11_Y511_Q506R] ?
*A* hi

*Q* And for RRLEPYGENFN [APOA4_Y310_V307L] ?
*A* lo

*Q* Would you mind doing EIVYVYVKKRS [DNAI2_Y7] as well?
*A* med

*Q* Here is the next sequence: RPSRQYATRDV [SCAMP3_Y35_L38R]
*A* lo

*Q* Record: AKRKGYDMQVD [NEB_Y2770_R2773Q]
*A* lo

*Q* Now consider KWHREYNFKYV [RICTOR_Y835_S837F] and answer again.
*A* lo

*Q* Also need GFQPDYGQPAG [SYP_Y278_YF] , thanks.
*A* lo

*Q* Would you mind doing TDKLFYIYTSG [SLC27A4_Y243] as well?
*A* med
